# Test system: Yap1 mRNA
# EXPERIMENT SUMMARY: Antisense inhibition of human Yap1 in SNU-449 cells by modified oligonucleotides, single dose (Example 5, RTS36584)
# Assay type: cell-based
# STATED CONDITIONS: Table 45; Yap1 mRNA as percent of untreated control, SNU-449 cells, single dose
Strand notation (5' to 3'): a small letter for the sugar, then the base; units joined by * are phosphorothioate-linked, units joined directly phosphodiester-linked; [ ] holds rarer units or linkages, { } end groups; capitals alone tell only the bases. k = constrained ethyl (cEt); [5mC] = 5-methylcytosine; d = 2'-deoxy (DNA)

{"SUBSTANCE": "1198962 (kT*kA*dA*dA*dG*dT*dG*dT*dA*dT*dG*kT*d[5mC]*kA*dG*kA; antisense) [Compound 1198962]", "TARGET OR TEST SYSTEM": "Yap1 mRNA", "YAP1 (% UTC)": 52}
{"SUBSTANCE": "958499 (kA*kT*kT*dA*dG*dA*dG*dT*dA*dT*dG*dT*dG*kG*k[5mC]*kA) [Compound 958499]", "TARGET OR TEST SYSTEM": "Yap1 mRNA", "YAP1 (% UTC)": 15}
{"SUBSTANCE": "1198896 (kT*kG*dG*dA*dA*dA*dT*dT*dG*dT*d[5mC]*kT*d[5mC]*kA*dT*kG; antisense) [Compound 1198896]", "TARGET OR TEST SYSTEM": "Yap1 mRNA", "YAP1 (% UTC)": 59}
{"SUBSTANCE": "1198955 (kA*kT*dG*dT*dA*dA*dT*dA*dT*dT*dG*k[5mC]*dA*kA*dT*k[5mC]; antisense) [Compound 1198955]", "TARGET OR TEST SYSTEM": "Yap1 mRNA", "YAP1 (% UTC)": 92}
{"SUBSTANCE": "1198959 (kA*kG*dT*dG*dT*dA*dT*dG*dT*d[5mC]*dA*kG*dA*kA*dG*kA; antisense) [Compound 1198959]", "TARGET OR TEST SYSTEM": "Yap1 mRNA", "YAP1 (% UTC)": 8}
{"SUBSTANCE": "1198964 (kT*kT*dT*dA*dA*dA*dG*dT*dG*dT*dA*kT*dG*kT*d[5mC]*kA; antisense) [Compound 1198964]", "TARGET OR TEST SYSTEM": "Yap1 mRNA", "YAP1 (% UTC)": 59}
{"SUBSTANCE": "1198938 (kT*k[5mC]*dA*dG*dA*dT*dT*dT*dA*dG*dG*kA*dT*kG*d[5mC]*kA; antisense) [Compound 1198938]", "TARGET OR TEST SYSTEM": "Yap1 mRNA", "YAP1 (% UTC)": 59}
{"SUBSTANCE": "1198932 (kT*kT*dA*dG*dG*dA*dT*dG*d[5mC]*dA*dT*kG*dG*kT*dT*kT; antisense) [Compound 1198932]", "TARGET OR TEST SYSTEM": "Yap1 mRNA", "YAP1 (% UTC)": 35}
{"SUBSTANCE": "1198909 (kG*kG*dT*dA*dT*dA*dA*d[5mC]*dT*dG*dG*kG*d[5mC]*kA*dA*kA; antisense) [Compound 1198909]", "TARGET OR TEST SYSTEM": "Yap1 mRNA", "YAP1 (% UTC)": 56}
{"SUBSTANCE": "1198958 (kT*kG*dT*dA*dT*dG*dT*d[5mC]*dA*dG*dA*kA*dG*kA*dG*kT; antisense) [Compound 1198958]", "TARGET OR TEST SYSTEM": "Yap1 mRNA", "YAP1 (% UTC)": 12}
{"SUBSTANCE": "1198893 (kA*kA*dA*dT*dT*dG*dT*d[5mC]*dT*d[5mC]*dA*kT*dG*k[5mC]*d[5mC]*kT; antisense) [Compound 1198893]", "TARGET OR TEST SYSTEM": "Yap1 mRNA", "YAP1 (% UTC)": 58}
{"SUBSTANCE": "1198971 (k[5mC]*kT*dA*dA*dG*dT*dA*dA*dG*dG*dT*kT*dT*k[5mC]*d[5mC]*k[5mC]; antisense) [Compound 1198971]", "TARGET OR TEST SYSTEM": "Yap1 mRNA", "YAP1 (% UTC)": 31}
{"SUBSTANCE": "1198957 (kT*kT*dT*dA*dT*dG*dT*dA*dA*dT*dA*kT*dT*kG*d[5mC]*kA; antisense) [Compound 1198957]", "TARGET OR TEST SYSTEM": "Yap1 mRNA", "YAP1 (% UTC)": 81}
{"SUBSTANCE": "1198956 (kT*kA*dT*dG*dT*dA*dA*dT*dA*dT*dT*kG*d[5mC]*kA*dA*kT; antisense) [Compound 1198956]", "TARGET OR TEST SYSTEM": "Yap1 mRNA", "YAP1 (% UTC)": 76}
{"SUBSTANCE": "1198913 (kT*kT*dA*d[5mC]*dA*dT*dT*dA*dG*dG*dA*kA*d[5mC]*kA*dA*kG; antisense) [Compound 1198913]", "TARGET OR TEST SYSTEM": "Yap1 mRNA", "YAP1 (% UTC)": 86}
{"SUBSTANCE": "1198941 (kT*kT*dA*dT*dA*dT*dG*dG*dT*dT*dT*kT*dG*kT*dG*kT; antisense) [Compound 1198941]", "TARGET OR TEST SYSTEM": "Yap1 mRNA", "YAP1 (% UTC)": 35}
{"SUBSTANCE": "1198911 (kG*kA*dG*dG*dT*dA*dT*dA*dA*d[5mC]*dT*kG*dG*kG*d[5mC]*kA; antisense) [Compound 1198911]", "TARGET OR TEST SYSTEM": "Yap1 mRNA", "YAP1 (% UTC)": 26}
{"SUBSTANCE": "1198925 (k[5mC]*kT*dT*dT*dG*dG*dA*dA*dG*dA*dT*k[5mC]*dT*kG*dA*kA; antisense) [Compound 1198925]", "TARGET OR TEST SYSTEM": "Yap1 mRNA", "YAP1 (% UTC)": 52}
{"SUBSTANCE": "1198919 (A_{ks}G^{m}C_{ds}A_{ds}^{m}C_{ds}T_{ds}T_{ds}T_{ds}T_{ds}A_{ds}^{m}C_{ds}A_{ks}T_{ds}T_{ks}A_{ds}G_{k}; modified gapmer, phosphorothioate, as printed in the source, key not given here) [Compound 1198919]", "TARGET OR TEST SYSTEM": "Yap1 mRNA", "YAP1 (% UTC)": 60}
{"SUBSTANCE": "1198942 (k[5mC]*kT*dT*dA*dT*dA*dT*dG*dG*dT*dT*kT*dT*kG*dT*kG; antisense) [Compound 1198942]", "TARGET OR TEST SYSTEM": "Yap1 mRNA", "YAP1 (% UTC)": 42}
{"SUBSTANCE": "1198969 (kA*kA*dG*dT*dA*dA*dG*dG*dT*dT*dT*k[5mC]*d[5mC]*k[5mC]*dA*kG; antisense) [Compound 1198969]", "TARGET OR TEST SYSTEM": "Yap1 mRNA", "YAP1 (% UTC)": 31}
{"SUBSTANCE": "1198950 (kA*kT*dA*dT*dT*dG*d[5mC]*dA*dA*dT*d[5mC]*kT*dG*kT*d[5mC]*kT; antisense) [Compound 1198950]", "TARGET OR TEST SYSTEM": "Yap1 mRNA", "YAP1 (% UTC)": 85}
{"SUBSTANCE": "1198954 (kT*kG*dT*dA*dA*dT*dA*dT*dT*dG*d[5mC]*kA*dA*kT*d[5mC]*kT; antisense) [Compound 1198954]", "TARGET OR TEST SYSTEM": "Yap1 mRNA", "YAP1 (% UTC)": 94}
{"SUBSTANCE": "1198965 (k[5mC]*kT*dT*dT*dA*dA*dA*dG*dT*dG*dT*kA*dT*kG*dT*k[5mC]; antisense) [Compound 1198965]", "TARGET OR TEST SYSTEM": "Yap1 mRNA", "YAP1 (% UTC)": 95}
{"SUBSTANCE": "1198953 (kG*kT*dA*dA*dT*dA*dT*dT*dG*d[5mC]*dA*kA*dT*k[5mC]*dT*kG; antisense) [Compound 1198953]", "TARGET OR TEST SYSTEM": "Yap1 mRNA", "YAP1 (% UTC)": 58}

These measurements were taken from patent US11214803B2.
